// provenance: patent US20130344026A1

Tested on: PANC-1 cells
Experiment: cell viability assay in PANC-1 cells (compound alone, + 100 ng/ml TNFa, + 300 ng/ml TRAIL)
Assay type: cell-based
Conditions: with 100 ng/ml TNFa; Tables 15-18; read-out: IC50 (uM) in cell viability assay in PANC-1 cells: Cmpnd + 100 ng/ml TNFa
I'd be grateful if you could share measured IC50 for these entries.
Kindly answer with a numeric value in µM, unit omitted.

Task: Item under review: CN[C@@H](C)C(=O)N[C@@H](CCCCCC[C@H](NC(=O)[C@H](C)NC)C(=O)N1CCC[C@H]1CNC(=O)c1ccccn1)C(=O)N1CCC[C@H]1CNC(=O)c1ccccn1 [Compound P2-47] . Reported IC50?
Output: 0.108

Task: Tell me the measured IC50 of CN[C@@H](C)C(=O)N[C@H](C(=O)N1CCC[C@H]1c1cc(C(=O)OC)c(-c2cn(CCCCCCn3cc(-c4oc([C@@H]5CCCN5C(=O)[C@@H](NC(=O)[C@H](C)NC)C(C)(C)C)cc4C(=O)OC)c4ccccc43)c3ccccc23)o1)C(C)(C)C , please.
Output: 0.0243

Task: Recorded IC50 for CN[C@@H](C)C(=O)N[C@H](C(=O)N1CCC[C@H]1C(=O)N[C@H](COC(=O)c1cccc(C(=O)OC[C@@H](NC(=O)[C@@H]2CCCN2C(=O)[C@@H](NC(=O)[C@H](C)NC)C(C)(C)C)c2ccccc2)c1)c1ccccc1)C(C)(C)C , please?
Output: 0.014

Task: Record request: IC50 value, item CN[C@@H](C)C(=O)N[C@H](C(=O)N1CCC[C@H]1c1nc(C(=O)NCCCCCCCCNC(=O)c2nc([C@@H]3CCCN3C(=O)[C@@H](NC(=O)[C@H](C)NC)C(C)(C)C)oc2-c2c[nH]c3ccccc23)c(-c2c[nH]c3ccccc23)o1)C(C)(C)C
Output: 0.0007
